The entries below are paired with their reported IC50.
Study Target: human PCSK9 / human LDLR EGFa domain interaction (Homo sapiens (Human), UniProt Q8NBP7)
Sequence (Q8NBP7 153-692): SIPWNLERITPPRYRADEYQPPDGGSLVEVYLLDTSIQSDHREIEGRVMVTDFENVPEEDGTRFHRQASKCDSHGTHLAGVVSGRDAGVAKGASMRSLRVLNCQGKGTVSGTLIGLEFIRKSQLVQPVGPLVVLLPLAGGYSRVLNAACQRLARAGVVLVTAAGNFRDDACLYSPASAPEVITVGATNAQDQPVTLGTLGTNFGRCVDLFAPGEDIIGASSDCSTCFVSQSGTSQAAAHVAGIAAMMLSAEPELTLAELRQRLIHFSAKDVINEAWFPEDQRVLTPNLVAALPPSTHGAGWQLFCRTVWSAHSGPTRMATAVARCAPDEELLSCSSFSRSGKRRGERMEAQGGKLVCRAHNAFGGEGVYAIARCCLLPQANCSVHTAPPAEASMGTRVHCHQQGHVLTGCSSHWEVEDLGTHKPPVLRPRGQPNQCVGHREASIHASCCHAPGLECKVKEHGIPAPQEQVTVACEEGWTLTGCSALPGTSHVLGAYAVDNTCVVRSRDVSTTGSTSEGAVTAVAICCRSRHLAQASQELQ
Sequence (Q8NBP7 31-152 partner): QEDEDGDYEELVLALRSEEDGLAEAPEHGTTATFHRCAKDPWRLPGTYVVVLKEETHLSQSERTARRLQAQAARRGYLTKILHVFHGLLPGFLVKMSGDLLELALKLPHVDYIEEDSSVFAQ
Method Description: TR-FRET assay of inhibition of the PCSK9-LDLR protein-protein interaction
Type: binding
Cond: TR-FRET, 20 nM human PCSK9, 20 nM human LDLR EGFa domain, 2 hours room temperature; read-out: IC50
Starred links: 1 amine or outer side, 2 acyl side, 3 side chain; linkers in the order of their positions; H or OH if unused. Positions of bridges follow the written chain, without caps; N, C: chain ends. Non-standard residues stand in square brackets, D forms with d. Residues, ends and D or L forms follow the SMILES beside them. Naphthalene(2,6-diCH2) = c1cc2cc(C[*:2])ccc2cc1C[*:1]; Pro(cis-4-CF3) = O=C(O)[C@@H]1C[C@H](C(F)(F)F)CN1; Trp(5-F) = N[C@@H](Cc1c[nH]c2ccc(F)cc12)C(=O)O; NMePhe(4-F) = CN[C@@H](Cc1ccc(F)cc1)C(=O)O; mXylylene = c1cc(C[*:1])cc(C[*:2])c1; X34 = O=C(CCC1CCN([*:1])CC1)[*:2]; NMeD = CN[C@@H](CC(=O)O)C(=O)O; αMeP = C[C@@]1(C(=O)O)CCCN1; Mpa = O=C(O)CCS; Sar = CNCC(=O)O

{"Molecule": "COc1ccc(C[C@@H]2NC(=O)[C@H](Cc3cnc[nH]3)NC(=O)[C@H](CC(=O)O)NC(=O)[C@H](Cc3c[nH]c4ccc(F)cc34)NC(=O)[C@H](Cc3c[nH]c4ccc(F)cc34)NC(=O)[C@H](C)NC(=O)CCC3CCN(CC3)C(=O)[C@H](CC(N)=O)NC(=O)[C@]3(C)CCCN3C2=O)cc1 [Compound 404] (cyclo(A[Trp(5-F)][Trp(5-F)]DHY(Me)[αMeP]N[X34]))", "IC50": "100 to 1000 nM"}
{"Molecule": "CC(=O)N(C)[C@@H](Cc1ccc(F)cc1)C(=O)N[C@H]1CSCc2cccc(c2)CSC[C@@H](C(N)=O)NC(=O)[C@@H]2CCCN2C(=O)[C@H](Cc2ccc(O)cc2)NC(=O)[C@H](Cc2cnc[nH]2)NC(=O)[C@H](CC(=O)O)NC(=O)[C@H](Cc2c[nH]c3ccc(F)cc23)NC(=O)[C@H](Cc2c[nH]c3ccc(F)cc23)NC(=O)CNC(=O)[C@H](CCCCN)NC1=O [Compound 147] (Ac-[NMePhe(4-F)]CKG[Trp(5-F)][Trp(5-F)]DHYPC-NH2; linker 2-11 via mXylylene)", "IC50": "100 to 1000 nM"}
{"Molecule": "NCCCC[C@@H]1NC(=O)CCSCc2cccc(c2)CSC[C@@H](C(N)=O)NC(=O)[C@@H]2C[C@H](C(F)(F)F)CN2C(=O)[C@H](Cc2ccc(O)cc2)NC(=O)[C@H](Cc2c[nH]cn2)NC(=O)[C@H](CC(=O)O)NC(=O)[C@H](Cc2c[nH]c3ccc(F)cc23)NC(=O)[C@H](Cc2c[nH]c3ccc(F)cc23)NC(=O)CNC1=O [Compound 296] ([Mpa]KG[Trp(5-F)][Trp(5-F)]DHY[Pro(cis-4-CF3)]C-NH2; linker 1-10 via mXylylene)", "IC50": "0.1 to 100 nM"}
{"Molecule": "NCCCC[C@@H]1NC(=O)CCSCc2ccc3cc(ccc3c2)CSC[C@@H](C(N)=O)NC(=O)[C@@H]2CCCN2C(=O)[C@H](Cc2ccc(O)cc2)NC(=O)[C@H](Cc2c[nH]cn2)NC(=O)[C@H](CC(=O)O)NC(=O)[C@H](Cc2c[nH]c3ccc(F)cc23)NC(=O)[C@H](Cc2c[nH]c3ccc(F)cc23)NC(=O)CNC1=O [Compound 203] ([Mpa]KG[Trp(5-F)][Trp(5-F)]DHYPC-NH2; linker 1-10 via Naphthalene(2,6-diCH2))", "IC50": "1000 to 12100 nM"}
{"Molecule": "CN1CC(=O)N[C@@H](Cc2c[nH]c3ccccc23)C(=O)N[C@@H](Cc2c[nH]c3ccccc23)C(=O)N(C)[C@@H](CC(=O)O)C(=O)N[C@@H](Cc2c[nH]cn2)C(=O)N[C@@H](Cc2ccc(O)cc2)C(=O)N2CCC[C@H]2C(=O)N[C@H](C(N)=O)CSCc2cccc(c2)CSCCC(=O)N[C@@H](CCCCN)C1=O [Compound 222] ([Mpa]K[Sar]WW[NMeD]HYPC-NH2; linker 1-10 via mXylylene)", "IC50": "21000 to 50000 nM"}
